Data credit: patent US6894185B2

Each record here notes measured P50e/P50c.
- Measurement Target: purified stripped human adult hemoglobin (Homo sapiens, UniProt P68871+P69905)
- Construct: using purified stripped human adult hemoglobin as described previously; from tissue
- Sequence (P69905 2-142 limits assumed): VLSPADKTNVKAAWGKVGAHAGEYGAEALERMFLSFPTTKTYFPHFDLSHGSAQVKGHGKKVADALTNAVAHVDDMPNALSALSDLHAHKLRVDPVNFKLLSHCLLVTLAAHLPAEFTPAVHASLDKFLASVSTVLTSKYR
- Sequence (P68871 2-147 limits assumed): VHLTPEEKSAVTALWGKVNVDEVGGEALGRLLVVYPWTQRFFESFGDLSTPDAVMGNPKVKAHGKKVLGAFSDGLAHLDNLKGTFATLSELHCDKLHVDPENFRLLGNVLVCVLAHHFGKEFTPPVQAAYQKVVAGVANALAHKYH
- Experimental Details: Hemoglobin solution oxygen equilibrium studies (HEMOX-analyzer)
- Type: biochemical
- Test Parameters: Table IV; ratio to P50 control with no effector (5.0 mmHg); 0.5 mM effector, pH 7.2
Assay Readout: P50e/P50c

> print(dat)
                                   compound  result.number
1  CC1CCCC1(Oc1ccc(CC(=O)Nc2ccc3c(c2)CCC3)cc1)C(=O)O (stereo not drawn)            2.8
2  Cc1cc(C)cc(NC(=O)Cc2ccc(OC3(C(=O)O)CCCC3)cc2)c1 [JP7, reference compound]            5.1
3  CCC(Oc1ccc(CC(=O)Nc2cc(C)cc(C)c2)cc1)C(=O)O (racemic)            2.6
4  CC(C)(Oc1ccc(CC(=O)Nc2ccc3c(c2)CCC3)cc1)C(=O)O [RSR46, reference compound]              3
5  Cc1cc(Cl)cc(NC(=O)Cc2ccc(OC3(C(=O)O)CCC(C)C3)cc2)c1 (stereo not drawn)            2.8
6  Cc1cc(C)cc(NC(=O)Cc2ccc(OC(C)C(=O)O)cc2)c1 (racemic)            1.9
